B1: tRNA (parent)
chain: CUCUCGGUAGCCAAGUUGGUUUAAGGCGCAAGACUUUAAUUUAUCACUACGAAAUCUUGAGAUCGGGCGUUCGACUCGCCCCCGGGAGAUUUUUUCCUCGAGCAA

variants of: B1; test: nonsense suppression (GFP-seq) (ratio to wild type); higher = more function; SUP4oc tRNA, yeast GFP reporter sort-seq
Fewer inactive variants are shown than the library holds.
Value Type: nonsense suppression

sequence_text=CUCUCGGUAGCCAAGUUGGUUUAAGGCGCAACACUUUAAUUUAUCACUACGAAAUCUUGAGAUCGGGCGUUCGACACGCCCCCGGGAGAUUUUUUCCUCGAGCAA value_type="nonsense suppression" value_modifier=≤ recorded_result=0.026
sequence_text=CUCUCGGUAGCCAAGAUGGUUUAAGGCACAAGACUUUAAUUUAUCACUACGAAAUCUUGAGAUCGGGCGUUCGACUCGCCCCCGGGAGAUUUUUUCCUCGAGCAA value_type="nonsense suppression" value_modifier== recorded_result=1.11
sequence_text=CUCUCGGUAGCCAAGUUGGUUUAAGGCGCACGACUUUAAUUUAUCACUACGAAAUCUUGAGGUCGGGCGUUCGACUCACCCCCGGGAGAUUUUUUCCUCGAGCAA value_type="nonsense suppression" value_modifier=≤ recorded_result=0.026
sequence_text=CUCUCGGUAGCCAAGUUGGUUUAACGCGCAAGACUUUAAUUUAUCACUACGAAUUCUUGAGAUCGGGCGUUCGACUCGCCCCCGGGAGAUUUUUUCCUCGAGCAA value_type="nonsense suppression" value_modifier== recorded_result=0.0708
sequence_text=CUCCCGGUAGCCAAGUUGGUUUAAGGCGCAAGAGUUUAAUUUAUCACUACGAAAUCUUGAGAUCGGGCGUUCGACUCGCCCCCGGGAGAUUUUUUCCUCGAGCAA value_type="nonsense suppression" value_modifier== recorded_result=0.0649
sequence_text=CUCUCGGUAGCCAAGUUGGUUUAAGGCGCAAGACUUUAAUUUAUCACUACGAAAUCAUGAAAUCGGGCGUUCGACUCGCCCCCGGGAGAUUUUUUCCUCGAGCAA value_type="nonsense suppression" value_modifier== recorded_result=0.0464
sequence_text=CUCUCGGUAGCCAAGUUGGUUUAAGGUGCAAGACUUUAAUUUAUCACUACGAAAUCUUGAGAUCGGGCGUCCGACUGGCCCCCGGGAGAUUUUUUCCUCGAGCAA value_type="nonsense suppression" value_modifier=≤ recorded_result=0.026
sequence_text=AUCUCGGUAGCCAAGUUGGUUUAAGGCGCAUGACUUUAAUUUAUCACUACGAAAUCUUGAGAUCGGGCGUUCGACUCGCCCCCAGGAAAUUUUUUCCUCGAGCAA value_type="nonsense suppression" value_modifier=≤ recorded_result=0.026
sequence_text=CUCUCGGUAGCCAAGUUGGUUAAAGGCGCAAGACUUUAAUUUAUCACUACGAAAUCUUGAGAUCGGGCGUUCGACCCGCCCCCGGGAGAUUUUUUCCUCGAGCAA value_type="nonsense suppression" value_modifier== recorded_result=0.967
sequence_text=CUCUCGGUGGCCAAGUUGGUUUAAGGCGUAAGACUUUAAUUUAUCACUACGAAAUCUUGAGAUCGGGCGUUCGACUCGCCCCCGGGAGAUUUUUUCCUCGAGCAA value_type="nonsense suppression" value_modifier== recorded_result=0.2
sequence_text=CUCCCGGUAGCCAAGUUGGUUUAAGGCGCAAGGCUUUAAUUUAUCACUACGAAAUCUUGAGAUCGGGCGUUCGACUCGCCCCCGGGAGAUUUUUUCCUCGAGCAA value_type="nonsense suppression" value_modifier== recorded_result=0.0434
sequence_text=CUCCCGGUAGCCAAGUGGGUUUAACGCGCAAGACUUUAAUUUAUCACUACGAAAUCUUGAGAUCGUGCGCUCGACUCGCCCCCUGGAGAUUUUUUCCUCGAGCAA value_type="nonsense suppression" value_modifier=≤ recorded_result=0.026
sequence_text=CUCUCGGUAGCCAAGUUGGCUUAAGGCGCAAGACUUUAAUUUAUCACUACGAAAUCUUGAGAUCGGGCGUUCGACCCGCCCCCGGGAGAUUUUUUCCUCGAGCAA value_type="nonsense suppression" value_modifier== recorded_result=0.228
sequence_text=CUUUCGGUAGCCAAGUUGGUUUAAGGCGCAAGACUUUAAUUUAUCACUACGAAAUCUUGAGAUCGGGCGUUCGACUCGCCCCCGAGAGAUUUUUUCCUCGAGCAA value_type="nonsense suppression" value_modifier== recorded_result=0.528
sequence_text=CUCUCGGUAUCCAAGUUGGUUUAAGGAGCAAGACUUUAAUUUAUCACUACGAAAUCUUGAGAUCGGGCGUUCGACUCGCCCCCGGGAGAUUUUUUCCUCGAGCAA value_type="nonsense suppression" value_modifier== recorded_result=0.119
sequence_text=CUCUCGGUAGCCAAGGUGGUUUAAGGCGCAAGACUUUAAUUUAUCACUACGAAAUCUUGAGAUCGGGCGUUCGACUCGCCCCCGGGAGAUUUUUUCCUCGAGCAA value_type="nonsense suppression" value_modifier== recorded_result=1
sequence_text=CUCUCGGUAGCCAAGUUGGUUUAAGGCGCAAGGCUUUAAUUUAUCACUACGAAAUCUUGAGAUCGGGCGUUCGACUCGCCCCCGGGGGAUUUUUUCCUCGAGCAA value_type="nonsense suppression" value_modifier== recorded_result=0.0348
sequence_text=CUUUCGGUAGCCAAGUAGGUUUAAGGCGCAAGACUUUAAUUUAUCACUACGAAAUCUUGAGAUCGGGCGUUCGACUCGCCCCCGGGAGAUUUUUUCCUCGAGCAA value_type="nonsense suppression" value_modifier== recorded_result=0.194
sequence_text=CUCUCGGUAGCCAAGUUGGUUUAAGGCGCAACACUUUAAUUUAUCACUACGAAAUCUUGAGGUCGGGCGUUCGACUCGCUCCCGGGAGAUUUUUUCCUCGAGCAA value_type="nonsense suppression" value_modifier=≤ recorded_result=0.026
sequence_text=CUCUCGGUAGCCAAGUUGGUUUAAGGCGCAAGACUUUAAUUUAUCACUACGAAAUCUUGAGAUCGGUCGUUCGACUCGGCCCCGGGAGAUUUUUUCCUCGAGCAA value_type="nonsense suppression" value_modifier== recorded_result=0.768
sequence_text=CUCUCGGUAGCCAAGUUGGUUUAAGGCCCAAGACUUUAAUUUAUCACUACGAAAUCUUGAAACCGGGCGUUCGACUCGCCCCCGGGAGAUUUUUUCCUCGAGCAA value_type="nonsense suppression" value_modifier== recorded_result=0.041
sequence_text=CUCGGGGUAGCCAAGUCGGUUUAAGGCGCAAGACUUUAAUUUAUCACUACGAAAUCUUGAGACCGGGCGUUCGUCUCGCCCCCGGGAGAUUUUUUCCUCGAGCAA value_type="nonsense suppression" value_modifier=≤ recorded_result=0.026
